Listed here are compounds together with their documented IC50.
# Tested on: K86415-001-R-J1-PDC complex spheroids, viability;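 note: spheroids exposed to agents for seven days before readout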
# protocol.description: Anticancer human tumor K86415-001-R-J1-PDC patient-derived lung adenocarcinoma cell line growth inhibition [RAS]
# recorded.conditions: curve of first compound; second compound 0.1 µM
# From the text: RAS pathway inhibitors in Combinations in Complex Spheroids A high-throughput screen of multi-cell type tumor spheroids was designed to identify active combinations of RAS pathway inhibitors and targeted small molecules. Complex spheroids include a stromal component modeled by human endothelial cells (HUVEC) and fibroblasts modeled by human mesenchymal stem cells (MSCs). […] Compounds. […] If the clinical Cmax for an agent had not been determined, the highest concentration tested was 10 microM. […]

>  <compound>
CCc1c2c(nc3ccc(O)cc13)-c1cc3c(c(=O)n1C2)COC(=O)[C@]3(O)CC + C=CC(=O)N1CCN(c2nc(OCC3CCCN3C)nc3c(F)c(-c4nc(N)cc(C)c4C(F)(F)F)c(Cl)cc23)C(C)C1

>  <result.type>
IC50

>  <measurement>
< 0.949 nM

$$$$

// IC50 lookup, compound = CC(C)n1nc(-c2ccc3oc(N)nc3c2)c2c(N)ncnc21 + C#Cc1c(F)ccc2cc(O)cc(-c3ncc4c(N5CC6CCC(C5)N6)nc(OCC56CCCN5CC(F)C6)nc4c3F)c12 , result: 48.8 nM

// IC50 lookup, compound = CC(=O)OC12COC1CC(O)C1(C)C(=O)C(O)C3=C(C)C(OC(=O)C(O)C(NC(=O)OC(C)(C)C)c4ccccc4)CC(O)(C(OC(=O)c4ccccc4)C21)C3(C)C (configuration not stated) + C#Cc1c(F)ccc2cc(O)cc(-c3ncc4c(N5CC6CCC(C5)N6)nc(OCC56CCCN5CC(F)C6)nc4c3F)c12 , result: < 31.6 nM

// IC50 lookup, compound = CC1(C)CCC(Nc2ncc(C(F)(F)F)c(-c3c[nH]c4c(P(C)(C)=O)c(C#N)ccc34)n2)CN1 (configuration not stated) + C=CC(=O)N1CCN(c2nc(OCC3CCCN3C)nc3c(F)c(-c4nc(N)cc(C)c4C(F)(F)F)c(Cl)cc23)C(C)C1 , result: < 0.949 nM

Hello, the source for this data is PubChem BioAssay AID2060893, in case you need it.
